B1: LRRC45 (parent)
chain: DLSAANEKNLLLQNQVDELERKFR

- Variants of: B1
- TEST DESCRIPTION: protein stability index of a GFP-peptide fusion (GPS, HEK-293T) (PSI 1-6); higher = more stable;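 note: lentivirally expressed fusions sorted by FACS into six bins by GFP to DsRed ratio, PSI derived from sequencing read proportions per bin multiplied by bin number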
- CONDITION: c terminus: a fixed tail appended
ENDPOINT NAME: protein stability index
Answer as a number with no unit attached.

Look over these answered cases.
| VARIANT ID | ENDPOINT NAME | ASSAY VALUE |
| --- | --- | --- |
| L11Q | protein stability index | 4.31 |
| L12I | protein stability index | 4.25 |
| F23W | protein stability index | 3.13 |
| Q15T | protein stability index | 3.35 |
| L10E | protein stability index | 4.94 |

Query string: Fill in the blank: the reported protein stability index of "F23P" is ____.
Result string: 4.77

Query string: Fill in the blank: the reported protein stability index of "D17N" is ____.
Result string: 3.52

Query string: Fill in the blank: the reported protein stability index of "L11N" is ____.
Result string: 4.5

Query string: Fill in the blank: the reported protein stability index of "E18S" is ____.
Result string: 3.33

Query string: Fill in the blank: the reported protein stability index of "R21T" is ____.
Result string: 4

Query string: Fill in the blank: the reported protein stability index of "L10K" is ____.
Result string: 4
